- Tested on: MS2 coat protein
- assay remarks: apparent KD of MS2 coat protein; designed switch direction (-1 OFF switch, 1 ON switch): -1; higher = weaker reporter binding
- test settings: input ligand: FMN 200 uM
property measured: apparent KD of MS2 coat protein

sequence text	apparent KD of MS2 coat protein
GCAGCAUAGAUAACAUACUGUUACAUGAGGAUCACCCAUGUAUAGGAUAUGGUCUGGAUUACAGGCCAGAAGGGUACAAGCUGC [Eli exng3 - 022] (Eterna round: R96, puzzle: Exclusion NG 3)	12.6 nM
ACAUGUAAUGUAGGAUAUUUUACACAUGAGGAUCACCCAUGUGACCAGAGGCUUUACUAUGAGUAAAAGAAGGGUAUGUACAUG [Ex NG2 #60] (Eterna round: R96, puzzle: Exclusion NG 2)	69.6 nM
UGGCUACAUGAGGAUCACCCAUGUCAGGAUAUGCCGUUAAAUUAACAUCAACAUACGGGUAGAAGGGACAGCGU [1st #6] (Eterna round: R97, puzzle: Exclusion 1)	43.5 nM
GGAAGGCGAGGAUAUACAAUGCCGGAAACGGCAGGCGUGAGACAUGAGGAUCACCCAUGUAGAAGGCGCGGAGA [AK-MS2ROC-r4-exclusion2-15] (Eterna round: R97, puzzle: Exclusion 2)	101 nM

Please find the next sequence below.
Consider AGGGAAGAGUGAGGAUAUGGAAAUUUGGUGAGAACAUGAGGAUCACCCAUGUGGAAACAAGAAAAUUAGAAGGUAUAGGGAGGG [AK ExNG2-1.2] (Eterna round: R96, puzzle: Exclusion NG 2) . Its measured apparent KD of MS2 coat protein is 48 nM
